# test-system: UniProt P16066
# measurement-notes: GC-A receptor activator analogs potency, SAR follow-up, HEK293 GC-A cells, cGMP TR-FRET, powder samples (AID 1671465)
# protocol-conditions: EC30 ANP
Activity calls are given as the source filed them.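 How the source made its calls: active means compounds whose mean EC50 for raising GC-A cGMP output is under 66 µM; inactive means the rest.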
I would appreciate it if you answered using one of these outcomes: active, inactive

| compound | assigned-category |
| --- | --- |
| CC(C)(C)CC(=O)N1CCCC(C(=O)Nc2nc3c(F)cc(F)cc3s2)C1 (stereo unspecified) | active |
| O=C(Nc1nc2c(F)cc(F)cc2s1)C1CCCN(Cc2ccccc2)C1 (stereo unspecified) | active |
| CC(C)(C)C(=O)N1CCCC(C(=O)Nc2nc3c(F)cc(F)cc3s2)C1 (stereo unspecified) | active |

Ask: Which outcome was assigned to O=C(Nc1nc2c(F)cc(F)cc2s1)C1CCN(C(=O)C2CCC2)CC1 in this test?
Reply: active

Ask: Please let me know the test result on file for CC(C)(C)C(=O)N1CCC(C(=O)Nc2nc3c(F)cc(F)cc3s2)C1 (stereo unspecified) .
Reply: active

Ask: Which result was noted for this compound in the test: CN(C)CCN1CCCC(C(=O)Nc2nc3c(F)cc(F)cc3s2)C1 (stereo unspecified)
Reply: active

Ask: Give the logged outcome of this assay for the following compound: O=C(Nc1nc2c(F)cc(F)cc2s1)C1CCCN(C(=O)C2CC2)C1 (stereo unspecified)
Reply: active

Ask: Give the logged outcome of this assay for the following compound: CC(=O)N1CCC(C(=O)Nc2nc3c(F)cc(F)cc3s2)CC1
Reply: active

Ask: Fill in: this test's call for O=C(Nc1nc2c(F)cc(F)cc2s1)C1CCCN(C(=O)c2ccccc2)C1 (stereo unspecified) is ___
Reply: active

Ask: // param item: CC(=O)Nc1nc2c(F)cc(F)cc2s1 ; yields the recorded call
Reply: active

Ask: Given O=C(Nc1nc2c(F)cc(F)cc2s1)C1CCCCC1 , state the outcome it received in this test.
Reply: active

Ask: Hi, do you know how O=C(Nc1nc2c(F)cc(F)cc2s1)C1CCCNC1 (stereo unspecified) came out in this test?
Reply: active

Ask: Short answer needed: outcome of this test for CC(C)(C)C(=O)N1CCC(C(=O)Nc2nc3c(Cl)cccc3s2)CC1 ?
Reply: active

Ask: Recorded test outcome, item O=C(Nc1nc2c(F)cc(F)cc2s1)C1CCCN(C(=O)C2CCC2)C1 (stereo unspecified)
Reply: active

Ask: How did this test come out for CC(C)N1CCC(C(=O)Nc2nc3c(F)cc(F)cc3s2)CC1 ?
Reply: active

Ask: Per the assay record, what outcome was assigned to CN1CCCC(C(=O)Nc2nc3c(F)cc(F)cc3s2)C1 (stereo unspecified) ?
Reply: active

Ask: Recorded test call requested for CC(C)(C)C(=O)N1CCC(C(=O)Nc2nc3c(Cl)ccc(Cl)c3s2)CC1
Reply: inactive

---

Reported pEC50 is given for each of the following compounds.
# test-system: Atrial natriuretic peptide receptor 1 (Homo sapiens) (UniProt P16066)
# Sequence (P16066 whole entry, looked up): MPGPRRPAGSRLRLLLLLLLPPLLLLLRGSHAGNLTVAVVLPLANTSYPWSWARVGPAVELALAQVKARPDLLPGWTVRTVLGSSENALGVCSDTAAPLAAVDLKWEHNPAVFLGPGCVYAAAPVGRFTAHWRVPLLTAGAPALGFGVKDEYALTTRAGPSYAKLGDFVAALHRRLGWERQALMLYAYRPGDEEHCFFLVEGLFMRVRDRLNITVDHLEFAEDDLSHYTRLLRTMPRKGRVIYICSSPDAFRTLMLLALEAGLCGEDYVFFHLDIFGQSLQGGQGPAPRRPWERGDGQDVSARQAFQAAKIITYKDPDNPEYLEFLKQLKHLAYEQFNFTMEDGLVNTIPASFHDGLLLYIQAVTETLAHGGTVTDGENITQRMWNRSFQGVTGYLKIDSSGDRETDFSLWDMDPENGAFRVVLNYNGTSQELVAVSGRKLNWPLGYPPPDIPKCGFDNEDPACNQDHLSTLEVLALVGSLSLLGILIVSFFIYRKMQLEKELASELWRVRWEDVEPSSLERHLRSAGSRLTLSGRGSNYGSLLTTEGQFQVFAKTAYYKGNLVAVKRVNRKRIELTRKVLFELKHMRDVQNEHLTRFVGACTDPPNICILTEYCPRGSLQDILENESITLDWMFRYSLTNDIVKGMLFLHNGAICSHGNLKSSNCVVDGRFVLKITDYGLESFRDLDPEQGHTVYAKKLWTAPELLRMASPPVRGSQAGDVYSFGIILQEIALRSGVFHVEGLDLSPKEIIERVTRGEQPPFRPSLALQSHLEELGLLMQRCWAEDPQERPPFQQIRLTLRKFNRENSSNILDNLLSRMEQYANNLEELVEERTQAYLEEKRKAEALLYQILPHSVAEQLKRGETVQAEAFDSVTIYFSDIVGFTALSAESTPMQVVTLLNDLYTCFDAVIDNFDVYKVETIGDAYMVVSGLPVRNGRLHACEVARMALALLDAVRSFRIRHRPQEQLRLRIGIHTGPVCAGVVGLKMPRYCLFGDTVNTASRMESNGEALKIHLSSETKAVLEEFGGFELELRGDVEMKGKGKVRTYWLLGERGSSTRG
# measurement-notes: GC-A receptor activator analogs potency, SAR follow-up, HEK293 GC-A cells, cGMP TR-FRET, powder samples (AID 1671465)
# protocol-conditions: EC30 ANP
Friendly reminder that pEC50 comes from taking -log10 of the concentration in mol/L.

| compound | test-system | meas-value |
| --- | --- | --- |
| CS(=O)(=O)N1CCCC(C(=O)Nc2nc3c(F)cc(F)cc3s2)C1 (centres undefined) | Atrial natriuretic peptide receptor 1 (Homo sapiens) (UniProt P16066) | 5.76 |
| CC(C)(C)OC(=O)N1CCCC(C(=O)Nc2nc3c(F)cc(F)cc3s2)C1 (centres undefined) | Atrial natriuretic peptide receptor 1 (Homo sapiens) (UniProt P16066) | 5.08 |
| CC(=O)N1CCCC(C(=O)Nc2nc3c(F)cc(F)cc3s2)C1 (centres undefined) | Atrial natriuretic peptide receptor 1 (Homo sapiens) (UniProt P16066) | 5.78 |

Moving on to another compound below.
Reported pEC50 ( O=C(Nc1nc2c(F)cc(F)cc2s1)C1CCCN(C(=O)Cc2ccccc2)C1 (centres undefined) ) = 5.69
